Below is a list of entries, each paired with its recorded pIC50 value.
System: CFPAC-1;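 note: cell viability readout used to gauge suppression of CFPAC-1 cell proliferation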
Assay: cells
Format: functional, cell-based
Settings: Homo sapiens
Description: SANGER: Inhibition of human CFPAC-1 cell growth in a cell viability assay.
pIC50: −log10 of the molar value.
readout.type: pIC50

INSERT INTO measurements (chem_smiles, val) VALUES
  ('Cn1cc(/C=C2\C(=O)Nc3cccnc32)c2ccccc21', '< 5.70'),
  ('CCCS(=O)(=O)Nc1ccc(F)c(C(=O)c2c[nH]c3ncc(Cl)cc23)c1F', '< 5.00'),
  ('COc1cc(Nc2c(C#N)cnc3cc(OCCCN4CCN(C)CC4)c(OC)cc23)c(Cl)cc1Cl', '< 5.70'),
  ('Cn1c(=O)n(-c2ccc(C(C)(C)C#N)cc2)c2c3cc(-c4cnc5ccccc5c4)ccc3ncc21', 6.82);

---

Below is a list of entries, each paired with its recorded IC50 value.
Test system: NCI-H1092;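 note: cell growth inhibition measured with a cell viability assay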
Experiment: cells
Format: functional, cell-based
Details: Homo sapiens
Description: SANGER: Inhibition of human NCI-H1092 cell growth in a cell viability assay.
readout.type: IC50

INSERT INTO assay_data (molecule, val) VALUES
  ('COc1cc(C)c(Sc2cnc(NC(=O)c3ccc(CNC(C)C(C)(C)C)cc3)s2)cc1C(=O)N1CCN(C(C)=O)CC1 (stereo not drawn)', '> 10.2 µM'),
  ('C[C@]12O[C@H](C[C@]1(O)CO)n1c3ccccc3c3c4c(c5c6ccccc6n2c5c31)CNC4=O', '> 2 µM'),
  ('Cc1[nH]c(/C=C2\C(=O)Nc3ccc(S(=O)(=O)Cc4c(Cl)cccc4Cl)cc32)c(C)c1C(=O)N1CCC[C@@H]1CN1CCCC1', '> 2 µM');

---

Below is a list of entries, each paired with its recorded pIC50 value.
Tested on: YAPC
Assay: cells
Format: functional, cell-based
Conditions: Homo sapiens
Description: SANGER: Inhibition of human YAPC cell growth in a cell viability assay.
pIC50: −log10 of the molar value.
readout.type: pIC50

INSERT INTO assay_data (chem_smiles, target_or_test_system, val) VALUES
  ('CCCS(=O)(=O)Nc1ccc(F)c(C(=O)c2c[nH]c3ncc(Cl)cc23)c1F', 'YAPC', '< 5.00'),
  ('N#C/C(=C1/Nc2ccccc2S1)c1ccnc(NCCc2cccnc2)n1', 'YAPC', '< 5.10'),
  ('CC[C@]1(O)C[C@@H]2CN(CCc3c([nH]c4ccccc34)[C@@](C(=O)OC)(c3cc4c(cc3OC)N(C)[C@H]3[C@@](O)(C(=O)OC)[C@H](OC(C)=O)[C@]5(CC)C=CCN6CC[C@]43[C@@H]65)C2)C1', 'YAPC', 7.06),
  ('CC(C)=CC[C@@H](O)C1=CC(=O)c2c(O)ccc(O)c2C1=O', 'YAPC', '< 4.80'),
  ('O=c1[nH]c2ccccc2n1C1CCN(Cc2ccc(-c3nc4cc5[nH]cnc5cc4nc3-c3ccccc3)cc2)CC1', 'YAPC', '< 5.59'),
  ('Cn1cc(/C=C2\C(=O)Nc3cccnc32)c2ccccc21', 'YAPC', '< 5.70'),
  ('C/C(O)=C(\C#N)C(=O)Nc1cc(Br)ccc1Br', 'YAPC', '< 4.80'),
  ('CO[C@@]12[C@H](COC(N)=O)C3=C(C(=O)C(C)=C(N)C3=O)N1C[C@@H]1N[C@@H]12', 'YAPC', 5.36),
  ('CC[C@@]1(O)C(=O)OCc2c1cc1n(c2=O)Cc2cc3ccccc3nc2-1', 'YAPC', 7.53);
